Experiment: MTS cytotoxicity assay, statements over groups of cell lines of the panel
Type: cell-based, human
Conditions: human, BJ and MRC-5 non-cancerous fibroblast cell lines

- COMPOUND: "O=C(c1ccc(F)cc1)C1CN(c2cc(-c3ccncc3)n[nH]c2=O)C1 [Compound 52]"
  IC50 at 72 h: "> 50 µM"
- COMPOUND: "O=C(Nc1ccccc1)C1CN(c2cc(-c3cccc(F)c3)n[nH]c2=O)C1 [Compound 9]"
  IC50 at 72 h: "> 50 µM"

----------
Biological target: Recombinant ITK (Homo sapiens)
Sequence (Q08881 whole entry): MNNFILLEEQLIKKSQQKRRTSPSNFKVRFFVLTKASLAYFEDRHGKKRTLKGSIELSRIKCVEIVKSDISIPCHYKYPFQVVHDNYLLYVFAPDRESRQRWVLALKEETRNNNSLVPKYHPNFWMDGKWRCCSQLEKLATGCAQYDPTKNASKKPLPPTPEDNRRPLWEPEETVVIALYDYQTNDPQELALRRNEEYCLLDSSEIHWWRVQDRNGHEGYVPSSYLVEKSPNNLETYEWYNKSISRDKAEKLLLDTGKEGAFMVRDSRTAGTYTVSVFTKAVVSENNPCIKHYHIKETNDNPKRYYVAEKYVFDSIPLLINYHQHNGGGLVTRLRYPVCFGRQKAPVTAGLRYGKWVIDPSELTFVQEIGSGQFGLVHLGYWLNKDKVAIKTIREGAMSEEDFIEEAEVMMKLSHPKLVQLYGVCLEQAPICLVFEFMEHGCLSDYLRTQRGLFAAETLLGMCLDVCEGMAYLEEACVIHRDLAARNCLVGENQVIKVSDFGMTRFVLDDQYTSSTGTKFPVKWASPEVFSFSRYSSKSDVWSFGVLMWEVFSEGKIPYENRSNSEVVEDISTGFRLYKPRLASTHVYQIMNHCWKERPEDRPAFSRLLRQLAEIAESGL
Test: In vitro biochemical kinase assay
pIC50: −log10 of the molar value.
MEASUREMENT NAME: pIC50

- SMILES RECORD: "O=C(Nc1ccccc1)C1CN(c2cc(-c3cccc(F)c3)n[nH]c2=O)C1"
  RESULT VALUE: 6.06

----------
Test: MTS cytotoxicity assay, statements over groups of cell lines of the panel
Format: cell-based, human
Conditions: human, A549, HCT116, HCT116-p53 and U2OS ITK-null cancer cell lines

- COMPOUND: "O=C(c1ccc(F)cc1)C1CN(c2cc(-c3ccncc3)n[nH]c2=O)C1 [Compound 52]"
  IC50 at 72 h: "> 50 µM"

----------
Quick list: IC50 per entry.
System: BJ
Test: MTS cytotoxicity assay, 72 h, BJ fibroblasts
Type: cell-based, human
Details: Homo sapiens, BJ, read-out: IC50 BJ

- SMILES RECORD: "O=C(NCC(F)(F)F)C1CN(c2cc(-c3ccc(F)cc3F)n[nH]c2=O)C1"
  IC50: "> 50 µM"
- SMILES RECORD: "O=C(NCc1ccco1)C1CN(c2cc(-c3ccc(Cl)cc3)n[nH]c2=O)C1"
  IC50: "> 50 µM"
- SMILES RECORD: "O=C(c1ccncc1)C1CN(c2cc(-c3ccncc3)n[nH]c2=O)C1"
  IC50: "> 50 µM"
- SMILES RECORD: "O=C(C1CN(c2cc(-c3ccncc3)n[nH]c2=O)C1)N1CCN(c2ccccc2)CC1"
  IC50: "> 50 µM"
- SMILES RECORD: "COc1ccc(-c2cc(N3CC(C(=O)NCc4ccco4)C3)c(=O)[nH]n2)cc1"
  IC50: "> 50 µM"
- SMILES RECORD: "O=C(c1ccc(F)cc1)C1CN(c2cc(-c3ccncc3)n[nH]c2=O)C1"
  IC50: "> 50 µM"
- SMILES RECORD: "O=C(NCc1ccco1)C1CN(c2cc(-c3ccccc3)n[nH]c2=O)C1"
  IC50: "> 50 µM"
- SMILES RECORD: "O=C(Nc1ccccc1)C1CN(c2cc(-c3ccncc3)n[nH]c2=O)C1"
  IC50: "> 50 µM"
- SMILES RECORD: "O=C(Nc1ccccc1)C1CN(c2cc(-c3ccc(F)cc3F)n[nH]c2=O)C1"
  IC50: "28.9 µM"
- SMILES RECORD: "O=C(NCc1ccco1)C1CN(c2cc(-c3ccncc3)n[nH]c2=O)C1"
  IC50: "> 50 µM"

----------
Test system: HCT116-p53
Test: MTS cytotoxicity assay, 72 h, HCT116-p53
Type: cell-based, human
Conditions: Homo sapiens, read-out: IC50 HCT116-p53
pIC50: −log10 of the molar value.
Recorded measurements of pIC50, one per entry

- SMILES RECORD: "O=C(NCC(F)(F)F)C1CN(c2cc(-c3ccc(Cl)cc3)n[nH]c2=O)C1"
  EXPERIMENTAL SYSTEM: "HCT116-p53"
  pIC50: "< 4.30"
- SMILES RECORD: "O=C(NCC(F)(F)F)C1CN(c2cc(-c3ccccc3)n[nH]c2=O)C1"
  EXPERIMENTAL SYSTEM: "HCT116-p53"
  pIC50: "< 4.30"
- SMILES RECORD: "O=C(c1ccc(F)cc1)C1CN(c2cc(-c3ccncc3)n[nH]c2=O)C1"
  EXPERIMENTAL SYSTEM: "HCT116-p53"
  pIC50: "< 4.30"
- SMILES RECORD: "O=C(Nc1ccccc1)C1CN(c2cc(-c3ccccc3)n[nH]c2=O)C1"
  EXPERIMENTAL SYSTEM: "HCT116-p53"
  pIC50: "< 4.30"
- SMILES RECORD: "O=C(C1CN(c2cc(-c3ccncc3)n[nH]c2=O)C1)N1CCN(c2ccccc2)CC1"
  EXPERIMENTAL SYSTEM: "HCT116-p53"
  pIC50: "< 4.30"
- SMILES RECORD: "COc1ccc(-c2cc(N3CC(C(=O)NCc4ccco4)C3)c(=O)[nH]n2)cc1"
  EXPERIMENTAL SYSTEM: "HCT116-p53"
  pIC50: "< 4.30"
- SMILES RECORD: "O=C(NCc1ccco1)C1CN(c2cc(-c3ccc(Cl)cc3)n[nH]c2=O)C1"
  EXPERIMENTAL SYSTEM: "HCT116-p53"
  pIC50: "< 4.30"
- SMILES RECORD: "COC(=O)c1cncc(-c2cc(N3CC(C(=O)NCc4ccco4)C3)c(=O)[nH]n2)c1"
  EXPERIMENTAL SYSTEM: "HCT116-p53"
  pIC50: 4.90
- SMILES RECORD: "COc1ccc(-c2cc(N3CC(C(=O)NCC(F)(F)F)C3)c(=O)[nH]n2)cc1"
  EXPERIMENTAL SYSTEM: "HCT116-p53"
  pIC50: "< 4.30"
- SMILES RECORD: "O=C(Nc1ccccc1)C1CN(c2cc(-c3ccc(F)cc3F)n[nH]c2=O)C1"
  EXPERIMENTAL SYSTEM: "HCT116-p53"
  pIC50: 4.48
- SMILES RECORD: "O=C(NCC(F)(F)F)C1CN(c2cc(-c3cccc(F)c3)n[nH]c2=O)C1"
  EXPERIMENTAL SYSTEM: "HCT116-p53"
  pIC50: "< 4.30"
- SMILES RECORD: "O=C(Nc1ccccc1)C1CN(c2cc(-c3ccncc3)n[nH]c2=O)C1"
  EXPERIMENTAL SYSTEM: "HCT116-p53"
  pIC50: "< 4.30"
- SMILES RECORD: "O=C(c1ccncc1)C1CN(c2cc(-c3ccncc3)n[nH]c2=O)C1"
  EXPERIMENTAL SYSTEM: "HCT116-p53"
  pIC50: "< 4.30"
- SMILES RECORD: "O=C(C1CN(c2cc(-c3ccccc3)n[nH]c2=O)C1)N1CCN(c2ccccc2)CC1"
  EXPERIMENTAL SYSTEM: "HCT116-p53"
  pIC50: "< 4.30"
- SMILES RECORD: "COc1ccc(-c2cc(N3CC(C(=O)Nc4ccccc4)C3)c(=O)[nH]n2)cc1"
  EXPERIMENTAL SYSTEM: "HCT116-p53"
  pIC50: "< 4.30"
- SMILES RECORD: "O=C(Nc1ccccc1)C1CN(c2cc(-c3ccc(Cl)cc3)n[nH]c2=O)C1"
  EXPERIMENTAL SYSTEM: "HCT116-p53"
  pIC50: 4.42
- SMILES RECORD: "O=C(NCc1ccco1)C1CN(c2cc(-c3ccncc3)n[nH]c2=O)C1"
  EXPERIMENTAL SYSTEM: "HCT116-p53"
  pIC50: "< 4.30"
- SMILES RECORD: "O=C(NCC(F)(F)F)C1CN(c2cc(-c3ccncc3)n[nH]c2=O)C1"
  EXPERIMENTAL SYSTEM: "HCT116-p53"
  pIC50: "< 4.30"
- SMILES RECORD: "O=C(NCC(F)(F)F)C1CN(c2cc(-c3ccc(F)cc3F)n[nH]c2=O)C1"
  EXPERIMENTAL SYSTEM: "HCT116-p53"
  pIC50: "< 4.30"
- SMILES RECORD: "O=C(NCc1ccco1)C1CN(c2cc(-c3ccccc3)n[nH]c2=O)C1"
  EXPERIMENTAL SYSTEM: "HCT116-p53"
  pIC50: "< 4.30"
- SMILES RECORD: "O=C(NCc1ccco1)C1CN(c2cc(-c3cccc(F)c3)n[nH]c2=O)C1"
  EXPERIMENTAL SYSTEM: "HCT116-p53"
  pIC50: "< 4.30"
- SMILES RECORD: "O=C(Nc1ccccc1)C1CN(c2cc(-c3cccc(F)c3)n[nH]c2=O)C1"
  EXPERIMENTAL SYSTEM: "HCT116-p53"
  pIC50: "< 4.30"
